Listed below: cell viability values for each entry.
System: NCI-H2228 parental
Test: cell viability relative to vehicle (fraction of vehicle); NCI-H2228 is an ALK-positive lung cancer line and DTP means drug-tolerant persister; higher = less growth inhibition
Conditions: 100 nM; treatment time 6 days
In all, about 2,800 compounds were measured (“cell viability relative to vehicle”: median about 1.1, lowest 2% from about 0.19 on). This excerpt belongs to a sample that is enriched for the lowest values.

[
  {
    "Molecule": "CC(=O)NCCC(=O)O",
    "cell viability": 0.856
  },
  {
    "Molecule": "C=C(C)[C@@H]1CC[C@]2(C)[C@H](CC=C3[C@@H]4[C@@H](C)[C@H](C)CC[C@]4(C)CC[C@]32C)[C@@]1(C)CCC(=O)O",
    "cell viability": 1.08
  },
  {
    "Molecule": "FC(F)(F)c1ccccc1-c1nc(NCc2cccs2)c2ccccc2n1",
    "cell viability": 1.04
  },
  {
    "Molecule": "CCC(=O)Nc1cccc(Oc2nc(Nc3ccc(N4CCN(C)CC4)cc3OC)ncc2Cl)c1",
    "cell viability": 1.22
  },
  {
    "Molecule": "COc1ccc(-c2oc3cc(O)cc(O)c3c(=O)c2O)cc1 [kaempferide]",
    "cell viability": 1.13
  },
  {
    "Molecule": "COc1cc2ncnc(Nc3cccc(Cl)c3)c2cc1OC",
    "cell viability": 0.877
  },
  {
    "Molecule": "CCCCCCCCCCCCCCCC(=O)O",
    "cell viability": 1.02
  },
  {
    "Molecule": "CN1CCN(c2ccc(OC(F)(F)F)c(Nc3ncc4c(n3)-c3c(c(C(N)=O)nn3CCO)CC4)c2)CC1",
    "cell viability": 0.168
  },
  {
    "Molecule": "O=C(/C=C/c1ccc(O)cc1)C1=C(O)C(O)([C@@H]2O[C@H](CO)[C@@H](O)[C@H](O)[C@H]2O)C(O)=C([C@@H]2O[C@H](CO)[C@@H](O)[C@H](O)[C@H]2O)C1=O (stereo partly specified) [Hydroxysafflor yellow A]",
    "cell viability": 1.07
  },
  {
    "Molecule": "CS(=O)(=O)Nc1cc(-c2ccc3ncnc(Nc4ccc(F)c(Cl)c4)c3c2)cnc1Cl",
    "cell viability": 1.08
  },
  {
    "Molecule": "COc1ncc(-c2ccc3nccc(-c4ccnnc4)c3c2)cc1NS(=O)(=O)c1ccc(F)cc1F",
    "cell viability": 0.148
  },
  {
    "Molecule": "CC(C)=CCC[C@](C)(O[C@@H]1O[C@H](CO)[C@@H](O)[C@H](O)[C@H]1O)[C@H]1CC[C@]2(C)[C@@H]1[C@H](O)C[C@@H]1[C@@]3(C)CC[C@H](O[C@@H]4O[C@H](CO)[C@@H](O)[C@H](O)[C@H]4O[C@@H]4O[C@H](CO)[C@@H](O)[C@H](O)[C@H]4O)C(C)(C)[C@@H]3CC[C@]12C [Ginsenoside Rd]",
    "cell viability": 1.18
  },
  {
    "Molecule": "COc1cc(CCC(=O)CC(=O)CCc2ccc(O)c(OC)c2)ccc1O [Tetrahydro Curcumin]",
    "cell viability": 1.03
  },
  {
    "Molecule": "CCOc1cc(N2CCC(O)CC2)ccc1Nc1ncc2c(n1)N(C1CCCC1)CCC(=O)N2C",
    "cell viability": 1.15
  },
  {
    "Molecule": "Nc1nc(=O)c2c([nH]1)NCC(CNc1ccc(C(=O)N[C@@H](CCC(=O)O)C(=O)O)cc1)N2C=O (stereo partly specified) [Calcium folinate]",
    "cell viability": 1.08
  },
  {
    "Molecule": "CC[C@@H]1C(=O)N(C)c2cnc(Nc3ccc(C(=O)N[C@H]4CC[C@H](N5CCN(CC6CC6)CC5)CC4)cc3OC)nc2N1C(C)C",
    "cell viability": 0.192
  },
  {
    "Molecule": "CC(C)(O)[C@H]1CC[C@H](Nc2ccc3ncc(-c4cccc(C(F)(F)F)c4)n3n2)CC1",
    "cell viability": 0.928
  },
  {
    "Molecule": "Oc1ccc(-c2cc(=S)ss2)cc1",
    "cell viability": 1.03
  },
  {
    "Molecule": "O=S(=O)(c1ccc(Cl)cc1)N1CCN(c2ccnc3cc(Cl)ccc23)CC1",
    "cell viability": 1.08
  },
  {
    "Molecule": "O=c1cc(N2CCOCC2)oc2c(-c3ccc4c(c3)OCCO4)csc12",
    "cell viability": 1.14
  },
  {
    "Molecule": "NC(=O)c1ccc2nc(-c3ccc(Oc4ccc(Cl)cc4)cc3)[nH]c2c1",
    "cell viability": 0.996
  },
  {
    "Molecule": "COc1ccc2[nH]c(C(=O)c3ccccc3)cc2c1",
    "cell viability": 0.197
  },
  {
    "Molecule": "COc1cc(C(=O)N2CCC(N3CCN(C)CC3)CC2)ccc1Nc1ncc2c(n1)N(C)c1ccccc1C(=O)N2C",
    "cell viability": 1.11
  },
  {
    "Molecule": "O=C(Nc1ccc(OC(F)(F)Cl)cc1)c1cnc(N2CC[C@@H](O)C2)c(-c2cc[nH]n2)c1",
    "cell viability": 1.11
  },
  {
    "Molecule": "Cc1cc(O)c(-c2ccc(C(C)CN)cc2)c2c1[nH]c(=O)c1sccc12 (stereo unspecified)",
    "cell viability": 0.116
  },
  {
    "Molecule": "CC(C)=CCC[C@](C)(O)[C@H]1CC[C@]2(C)[C@@H]1[C@H](O)C[C@@H]1[C@@]3(C)CC[C@H](O)C(C)(C)[C@@H]3[C@@H](O[C@@H]3O[C@H](CO)[C@@H](O)[C@H](O)[C@H]3O[C@@H]3O[C@@H](C)[C@H](O)[C@@H](O)[C@H]3O)C[C@]12C [Ginsenoside Rg2]",
    "cell viability": 1.15
  },
  {
    "Molecule": "CC[C@@](C)(Nc1ccnc(-c2c[nH]c3ncccc23)n1)C(=O)NCC(F)(F)F",
    "cell viability": 1.12
  },
  {
    "Molecule": "O=C(CCCCCCNC(=O)c1cnc(N(c2ccccc2)c2ccccc2Cl)nc1)NO",
    "cell viability": 1.03
  },
  {
    "Molecule": "Nc1ccccc1NC(=O)CCCCCCC(=O)Nc1ccccc1",
    "cell viability": 1.09
  },
  {
    "Molecule": "C=C1CCC[C@]2(C)C[C@]3(O)OC(=O)C(C)=C3C[C@@H]12 [Atractylenolide III]",
    "cell viability": 1.1
  },
  {
    "Molecule": "C=CC(=O)Nc1cccc(Oc2nc(Nc3ccc(N4CCN(C)CC4)cc3OC)ncc2Cl)c1",
    "cell viability": 1.19
  }
]
